- TARGET_SYSTEM: hGIPR (Homo sapiens, UniProt P48546)
- Construct: expressed in transfected cells; host or cells: CHO cells carrying a CRE-luciferase reporter gene
- Sequence (P48546 22-466): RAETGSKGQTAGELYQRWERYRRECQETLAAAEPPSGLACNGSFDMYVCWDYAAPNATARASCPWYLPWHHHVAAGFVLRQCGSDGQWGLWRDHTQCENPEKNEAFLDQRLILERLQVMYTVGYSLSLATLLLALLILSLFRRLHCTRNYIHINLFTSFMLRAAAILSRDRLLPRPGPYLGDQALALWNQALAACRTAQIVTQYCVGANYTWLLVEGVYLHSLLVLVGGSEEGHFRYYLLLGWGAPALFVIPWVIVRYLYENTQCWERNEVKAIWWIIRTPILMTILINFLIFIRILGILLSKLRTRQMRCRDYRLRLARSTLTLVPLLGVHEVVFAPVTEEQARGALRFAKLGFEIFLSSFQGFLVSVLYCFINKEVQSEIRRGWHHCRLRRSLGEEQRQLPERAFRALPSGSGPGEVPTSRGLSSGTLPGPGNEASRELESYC
- TEST_DESCRIPTION: hGIPR CreLuc reporter gene assay in 0.5% and 100% plasma
- Assay type: cell-based
- MEASUREMENT_PARAMETERS: CreLuc reporter gene assay, 0.5% human plasma; read-out: hGIPR 0.5% hP
Starred links: 1 amine or outer side, 2 acyl side, 3 side chain; linkers in the order of their positions; H or OH if unused. Non-standard residues stand in square brackets, D forms with d. Groups on a side chain read outwards from the residue. No end group written: not given here. *: point of attachment. C20 diacid = O=C(O)CCCCCCCCCCCCCCCCCCC(=O)*; C18 diacid = O=C(O)CCCCCCCCCCCCCCCCC(=O)*; γGlu = O=C(O)[C@H](CCC(=O)[*:2])N[*:1]; εLys = N[C@@H](CCCCN[*:1])C(=O)[*:2]; AEEA = NCCOCCOCC(=O)O; Aib = CC(C)(N)C(=O)O; Ahx = NCCCCCC(=O)O
Threshold check on EC50: strictly below 0.2 nM is T; on or above 0.2 nM is F.

The following substances have reported results that may help.
H-Y[Aib]EGTFTSDYSI[Aib]LEKQAQ[Aib]AFVQWLIK([γGlu-γGlu-γGlu-γGlu-C18 diacid])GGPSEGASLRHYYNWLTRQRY-NH2 [Compound 268] : T
H-Y[Aib]EGTFTSDYSI[Aib]LEKQAQ[Aib]AFVEWLIK([Glu-Glu-Glu-Glu-C18 diacid])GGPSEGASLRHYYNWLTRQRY-NH2 [Compound 291] : T
H-Y[Aib]EGTFTSDYSI[Aib]LEKQAQ[Aib]AFVEWLIK([εLys-γGlu-γGlu-γGlu-γGlu-γGlu-γGlu-C20 diacid])GGPSEYVSIRHYYNWLTRQRY-NH2 [Compound 42] : T
Y[Aib]EGTFTSDYSI[Aib]LEKQAQ[Aib]AFVEWLIK([εLys-γGlu-γGlu-γGlu-γGlu-γGlu-C20 diacid])GGPESPASLRHYYNWLTRQRY-NH2 [Compound 70] : F
Y[Aib]EGTFTSDYSI[Aib]LEKQAQ[Aib]AFVQWLIK([AEEA-AEEA-γGlu-γGlu-γGlu-C18 diacid])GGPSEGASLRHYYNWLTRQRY-NH2 [Compound 266] : T

[ask] Threshold test, EC50 < 0.2 nM: H-Y[Aib]EGTFTSDYSI[Aib]LEKQAQ[Aib]AFVQWLIK([εLys-γGlu-γGlu-γGlu-γGlu-γGlu-C20 diacid])GGPSEPASLRHYYNWLTRQRY-NH2 [Compound 169]
[reply] F

[ask] Threshold test, EC50 < 0.2 nM: H-Y[Aib]EGTFTSDYSI[Aib]LEKQAQ[Aib]AFVEWLIK([εLys-γGlu-γGlu-γGlu-γGlu-γGlu-γGlu-C20 diacid])GGPSSPESLRHYYNWLTRQRY-NH2 [Compound 73]
[reply] T

[ask] Threshold test, EC50 < 0.2 nM: H-Y[Aib]EGTFTSDYSI[Aib]LEKQAQ[Aib]AFVQWLIK([Ahx-γGlu-γGlu-γGlu-γGlu-γGlu-γGlu-C18 diacid])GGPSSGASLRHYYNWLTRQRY-NH2 [Compound 139]
[reply] F

[ask] Threshold test, EC50 < 0.2 nM: Y[Aib]EGTFTSDYSI[Aib]LEKQAQ[Aib]AFIEWLIK([AEEA-AEEA-γGlu-γGlu-γGlu-γGlu-C18 diacid])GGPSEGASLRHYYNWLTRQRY-NH2 [Compound 258]
[reply] T

[ask] Threshold test, EC50 < 0.2 nM: H-Y[Aib]EGTFTSDYSI[Aib]LEKQAQ[Aib]AFVQWLIK([εLys-γGlu-γGlu-γGlu-γGlu-γGlu-C18 diacid])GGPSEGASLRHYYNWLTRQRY-NH2 [Compound 267]
[reply] T

[ask] Threshold test, EC50 < 0.2 nM: H-Y[Aib]EGTFTSDYSI[Aib]LEKQAQ[Aib]AFVEWLIK([εLys-γGlu-γGlu-γGlu-γGlu-γGlu-C18 diacid])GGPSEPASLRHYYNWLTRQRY-NH2 [Compound 263]
[reply] T

[ask] Threshold test, EC50 < 0.2 nM: H-Y[Aib]EGTFTSDYSI[Aib]LEKQAQ[Aib]AFVQWLIK([Ahx-γGlu-γGlu-γGlu-γGlu-γGlu-C18 diacid])GGPEEGASLRHYYNWLTRQRY-NH2 [Compound 162]
[reply] F

[ask] Threshold test, EC50 < 0.2 nM: H-Y[Aib]EGTFTSDYSI[Aib]LEKQAQ[Aib]AFVEWLIK([AEEA-AEEA-γGlu-γGlu-γGlu-γGlu-C18 diacid])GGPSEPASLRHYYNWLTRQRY-NH2 [Compound 256]
[reply] F

[ask] Threshold test, EC50 < 0.2 nM: H-Y[Aib]EGTFTSDYSI[Aib]LEKQAQ[Aib]AFVEWLIK([εLys-γGlu-γGlu-γGlu-γGlu-γGlu-γGlu-C20 diacid])GGPSSGASL[Aib]HYYNWLTRQRY-NH2 [Compound 129]
[reply] T

[ask] Threshold test, EC50 < 0.2 nM: Y[Aib]EGTFTSDYSI[Aib]LEKQAQ[Aib]AFVQWLIK([Glu-γGlu-γGlu-γGlu-γGlu-C20 diacid])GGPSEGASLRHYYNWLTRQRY-NH2 [Compound 243]
[reply] F

[ask] Threshold test, EC50 < 0.2 nM: H-Y[Aib]EGTFTSDYSI[Aib]LEGQAQ[Aib]AFVEWLIK([εLys-γGlu-γGlu-γGlu-γGlu-γGlu-γGlu-C20 diacid])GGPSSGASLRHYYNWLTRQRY-NH2 [Compound 99]
[reply] F

[ask] Threshold test, EC50 < 0.2 nM: H-Y[Aib]EGTFTSDYSI[Aib]LEKQAQ[Aib]AFVEWLIK([εLys-γGlu-γGlu-γGlu-γGlu-γGlu-γGlu-C20 diacid])GGPSYGASLRHYYNWLTRQRY-NH2 [Compound 232]
[reply] T
